- experiment: logP determination by HPLC (EEC Directive 79/831 Annex V.A8), reversed-phase column C 18
- Assay type: physicochemical
- test-conditions: mobile-phase label not given
measured-metric: chromatographic logP
Give a plain numeric answer without units written out.

Look at this compound and give its reported chromatographic logP. CCOC(=O)NC1=CC(=O)N(c2cc(Oc3ccc4cc(OC)ccc4c3)c(C#N)cc2F)C1=O
3.63

====

- experiment: logP determination by HPLC (EEC Directive 79/831 Annex V.A8), reversed-phase column C 18
- Assay type: physicochemical
- test-conditions: reversed-phase HPLC column (C 18); a) acidic range: 0.1% aqueous phosphoric acid/acetonitrile gradient; 43° C.
measured-metric: chromatographic logP
Give a plain numeric answer without units written out.

Look at this molecule and give its reported chromatographic logP. COc1ccc2cc(Oc3cc(-n4c(=O)cc(C(N)=O)n(C)c4=O)c(F)cc3C#N)ccc2c1 [Example 35]
2.06

Look at this molecule and give its reported chromatographic logP. COC(=O)c1cc(=O)n(-c2cc(Oc3ccc4cc(OC)ccc4c3)c(C#N)cc2F)c(=O)n1C [Example 33]
3.22

Look at this molecule and give its reported chromatographic logP. COc1ccc2cc(Oc3cc(-n4c(=O)cc(C(=O)O)[nH]c4=O)c(F)cc3C#N)ccc2c1 [Example 31]
2.11

====

- experiment: logP determination by HPLC (EEC Directive 79/831 Annex V.A8), reversed-phase column C 18
- Type: physicochemical
- test-conditions: reversed-phase HPLC column (C 18); at pH 2.3
measured-metric: chromatographic logP
Give a plain numeric answer without units written out.

Look at this compound and give its reported chromatographic logP. CCOC(=O)[C@@H](C)Oc1ccc2cc(Oc3cc(-n4c(=O)cc(C(F)(F)F)n(C)c4=O)c(F)cc3C#N)ccc2c1
3.99

====

Please note: melting point exactly at 100 °C is Not fulfilled. Only values below 100 °C get Fulfilled.

CCOC(=O)C(C)Oc1ccc2ccc(Oc3cc(-n4c(=O)cc(C(F)(F)F)n(C)c4=O)c(F)cc3C#N)cc2c1 (racemic) | Not fulfilled
N#Cc1cc(F)c(-n2c(=O)cc(C(F)(F)F)[nH]c2=O)cc1Oc1ccc2ccccc2c1 | Fulfilled
COc1cccc2c(Oc3cc(-n4c(=O)cc(C(F)(F)F)n(C)c4=O)c(F)cc3C#N)cccc12 | Not fulfilled
N#Cc1cc(F)c(-n2c(=O)cc(C(F)(F)F)[nH]c2=O)cc1Oc1cccc2c(O)cccc12 | Not fulfilled

Next item in the queue.
Consider the molecule Cn1c(C(F)(F)F)cc(=O)n(-c2cc(Oc3ccc4cc(O)ccc4c3)c(C#N)cc2F)c1=O . Is its melting point strictly less than 100 °C?
Not fulfilled
